target: human CMKLR1 (Homo sapiens); construct: host or cells: HEK293A (Invitrogen), stably expressing human Gα15; experiment: Ca2+ mobilization (CellLux imaging) agonist assay in HEK293A cells expressing CMKLR1 and Gα15; assay type: cell-based; conditions: Ca2+ mobilization, CMKLR1; decimal comma
Sequence (Q99788 whole entry): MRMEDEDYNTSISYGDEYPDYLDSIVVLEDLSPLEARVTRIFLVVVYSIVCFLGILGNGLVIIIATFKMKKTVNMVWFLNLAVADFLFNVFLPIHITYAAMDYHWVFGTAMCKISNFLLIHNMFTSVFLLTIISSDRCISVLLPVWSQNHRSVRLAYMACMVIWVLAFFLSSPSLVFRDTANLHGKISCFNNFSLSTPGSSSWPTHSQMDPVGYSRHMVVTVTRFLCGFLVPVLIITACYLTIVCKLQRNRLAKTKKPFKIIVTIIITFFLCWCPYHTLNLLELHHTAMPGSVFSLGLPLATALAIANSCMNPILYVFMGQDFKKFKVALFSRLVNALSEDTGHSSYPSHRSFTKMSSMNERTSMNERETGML
Square brackets hold non-standard residues; d marks the D form. Peptide text beside a SMILES is read from it.
endpoint label: max response

| molecule | test result |
| --- | --- |
| CC(C)C[C@H](NC(=O)[C@@H]1CCCN1C(=O)[C@@H]1CCCN1)C(=O)N[C@H](Cc1c[nH]c2ccccc12)C(=O)N[C@@H](CCC(N)=O)C(=O)N[C@@H](Cc1ccc(O)cc1)C(=O)N[C@@H](C)C(=O)N[C@H](CC(=O)O)C(=O)N[C@H](CO)C(=O)O [compound 153] (H-PPL[dW]QYA[dD][dS]-OH; N-terminus assumed) | 1,31 DF/F0 |
| C[C@H](NC(=O)[C@H](Cc1ccc(O)cc1)NC(=O)[C@H](CCC(N)=O)NC(=O)CNC(=O)[C@@H]1CCCN1C(=O)[C@H](CCC(=O)O)NC(=O)[C@@H](N)Cc1ccc(O)cc1)C(=O)N[C@@H](Cc1ccccc1)C(=O)N[C@H](CO)C(=O)O [compound 94] (H-YEPGQYAF[dS]-OH; N-terminus assumed) | 1,56 DF/F0 |
| C[C@H](N)C(=O)N[C@H](Cc1c[nH]c2ccccc12)C(=O)N1CCC[C@H]1C(=O)NCC(=O)N[C@@H](CCC(N)=O)C(=O)N[C@@H](Cc1ccccc1)C(=O)N[C@@H](C)C(=O)N[C@H](Cc1ccc(O)cc1)C(=O)N[C@@H](CO)C(N)=O [compound 21] (H-A[dW]PGQFA[dY]S-NH2; N-terminus assumed) | 0,30 DF/F0 |
| CC(C)C[C@H](NC(=O)[C@H](N)Cc1ccc(O)cc1)C(=O)N1CCC[C@H]1C(=O)NCC(=O)N[C@H](Cc1c[nH]c2ccccc12)C(=O)N[C@@H](Cc1ccc(O)cc1)C(=O)N[C@@H](C)C(=O)N[C@@H](Cc1ccccc1)C(=O)N[C@H](Cc1ccccc1)C(=O)O [compound 142] (H-[dY]LPG[dW]YAF[dF]-OH; N-terminus assumed) | 1,55 DF/F0 |
| CC(C)C[C@H](NC(=O)[C@@H](N)CC(C)C)C(=O)N[C@@H](Cc1ccc(O)cc1)C(=O)N[C@H](Cc1c[nH]c2ccccc12)C(=O)N1CCC[C@H]1C(=O)N[C@@H](Cc1ccc(O)cc1)C(=O)N[C@@H](C)C(=O)N[C@@H](CCCCN)C(=O)N[C@H](CO)C(=O)O [compound 144] (H-LLY[dW]PYAK[dS]-OH; N-terminus assumed) | 1,56 DF/F0 |
| C[C@H](NC(=O)[C@H](CO)NC(=O)[C@H](Cc1ccccc1)NC(=O)[C@H](C)NC(=O)[C@H](Cc1ccccc1)NC(=O)[C@H](CCC(N)=O)NC(=O)[C@@H](N)Cc1ccccc1)C(=O)N[C@@H](Cc1ccccc1)C(=O)N[C@H](CO)C(=O)O [compound 103] (H-FQFAFSAF[dS]-OH; N-terminus assumed) | 1,76 DF/F0 |
| CC(C)C[C@H](NC(=O)[C@@H](N)Cc1ccc(O)cc1)C(=O)N1CCC[C@H]1C(=O)N[C@H](C)C(=O)N[C@@H](CCC(N)=O)C(=O)N[C@@H](Cc1ccc(O)cc1)C(=O)N[C@@H](C)C(=O)N[C@@H](Cc1ccccc1)C(=O)N[C@H](CO)C(=O)O [compound 124] (H-YLP[dA]QYAF[dS]-OH; N-terminus assumed) | 1,75 DF/F0 |
| CC(C)C[C@H](NC(=O)[C@@H](N)Cc1ccc(O)cc1)C(=O)N1CCC[C@H]1C(=O)NCC(=O)N[C@@H](CCC(N)=O)C(=O)N[C@@H](Cc1ccccc1)C(=O)N[C@H](Cc1c[nH]c2ccccc12)C(=O)N[C@@H](Cc1ccccc1)C(=O)N[C@@H](CO)C(=O)O [compound 41] (H-YLPGQF[dW]FS-OH; N-terminus assumed) | 0,94 DF/F0 |
| C[C@H](NC(=O)[C@H](Cc1c[nH]c2ccccc12)NC(=O)[C@H](CCC(N)=O)NC(=O)CNC(=O)[C@@H]1CCCN1C(=O)[C@H](Cc1c[nH]c2ccccc12)NC(=O)[C@@H](N)Cc1ccc(O)cc1)C(=O)N[C@H](Cc1ccccc1)C(=O)N[C@@H](CS)C(N)=O [compound 22] (H-YWPGQWA[dF]C-NH2; N-terminus assumed) | 0,44 DF/F0 |
| CC(C)C[C@H](NC(=O)[C@@H](N)CCC(N)=O)C(=O)N1CCC[C@H]1C(=O)NCC(=O)N[C@@H](CCC(N)=O)C(=O)N[C@@H](Cc1ccccc1)C(=O)N[C@@H](C)C(=O)N[C@H](Cc1ccccc1)C(=O)N[C@@H](Cc1ccccc1)C(=O)O [compound 71] (H-QLPGQFA[dF]F-OH; N-terminus assumed) | 0,66 DF/F0 |
| C[C@H](NC(=O)[C@H](Cc1ccc(O)cc1)NC(=O)[C@H](CCC(N)=O)NC(=O)[C@@H](CO)NC(=O)[C@H](Cc1ccccc1)NC(=O)[C@H](C)NC(=O)[C@@H](N)Cc1ccc(O)cc1)C(=O)N[C@@H](Cc1ccccc1)C(=O)N[C@H](CO)C(=O)O [compound 92] (H-YAF[dS]QYAF[dS]-OH; N-terminus assumed) | 1,54 DF/F0 |
| CC(C)C[C@H](NC(=O)[C@@H]1CCCN1C(=O)[C@@H](NC(=O)[C@H](Cc1ccc(O)cc1)NC(=O)[C@@H]1CCCN1)C(C)C)C(=O)N[C@H](CC(=O)O)C(=O)N[C@@H](Cc1ccc(O)cc1)C(=O)N[C@@H](C)C(=O)N[C@@H](Cc1ccccc1)C(=O)O [compound 111] (H-PYVPL[dD]YAF-OH; N-terminus assumed) | 1,5 DF/F0 |

* * *

assay: In vitro peptide stability in human serum (RP-HPLC); details: human, human serum, 25% (v/v) in RPMI
Square brackets hold non-standard residues; d marks the D form. Peptide text beside a SMILES is read from it.
Binarize half-life at 50 µg/mL at 30 min; below is true (1), at or above is false (0).

| molecule | label value |
| --- | --- |
| C[C@@H](NC(=O)[C@H](Cc1ccc(O)cc1)NC(=O)[C@H](CCC(N)=O)NC(=O)[C@H](N)Cc1ccccc1)C(=O)N[C@@H](CCC(N)=O)C(=O)N[C@@H](Cc1ccc(O)cc1)C(=O)N[C@H](Cc1c[nH]c2ccccc12)C(=O)N[C@@H](Cc1ccccc1)C(=O)N[C@H](CO)C(=O)O [compound 146] (H-[dF]QY[dA]QY[dW]F[dS]-OH; N-terminus assumed) | false (0) |
| CC(C)C[C@@H](NC(=O)[C@H](Cc1c[nH]cn1)NC(=O)[C@H](N)CO)C(=O)NCC(=O)N[C@@H](CCC(N)=O)C(=O)N[C@@H](Cc1ccc(O)cc1)C(=O)N[C@@H](C)C(=O)N[C@@H](Cc1ccccc1)C(=O)N[C@H](Cc1ccccc1)C(=O)O [compound 140] (H-[dS]H[dL]GQYAF[dF]-OH; N-terminus assumed) | false (0) |
| C[C@H](N)C(=O)N[C@@H](Cc1ccccc1)C(=O)NCC(=O)N[C@H](Cc1ccccc1)C(=O)N[C@H](CCC(N)=O)C(=O)N[C@@H](CO)C(=O)N[C@@H](C)C(=O)N[C@@H](Cc1ccc(O)cc1)C(=O)N[C@@H](CO)C(=O)O [compound 134] (H-AFG[dF][dQ]SAYS-OH; N-terminus assumed) | true (1) |
| CC(C)[C@H](NC(=O)[C@@H](N)Cc1ccc(O)cc1)C(=O)N1CCC[C@H]1C(=O)NCC(=O)N[C@@H](CCC(N)=O)C(=O)N[C@@H](Cc1ccc(O)cc1)C(=O)N[C@@H](C)C(=O)N[C@@H](Cc1ccccc1)C(=O)N[C@H](CO)C(=O)O [compound 86] (H-YVPGQYAF[dS]-OH; N-terminus assumed) | true (1) |
| CC(C)C[C@H](NC(=O)[C@@H](N)Cc1ccccc1)C(=O)N1CCC[C@H]1C(=O)NCC(=O)N[C@@H](CCC(N)=O)C(=O)N[C@@H](Cc1ccccc1)C(=O)N[C@H](Cc1c[nH]c2ccccc12)C(=O)N[C@@H](Cc1ccccc1)C(=O)N[C@H](CO)C(=O)O [compound 89] (H-FLPGQF[dW]F[dS]-OH; N-terminus assumed) | false (0) |
| CC(C)C[C@@H](NC(=O)[C@H](Cc1c[nH]cn1)NC(=O)[C@H](N)CO)C(=O)NCC(=O)N[C@@H](CCC(N)=O)C(=O)N[C@@H](Cc1ccc(O)cc1)C(=O)N[C@@H](C)C(=O)N[C@H](CC(=O)O)C(=O)N[C@@H](CO)C(=O)O [compound 96] (H-[dS]H[dL]GQYA[dD]S-OH; N-terminus assumed) | false (0) |
| C[C@H](NC(=O)[C@H](Cc1ccccc1)NC(=O)[C@H](C)NC(=O)[C@H](Cc1ccccc1)NC(=O)[C@@H](N)CCC(N)=O)C(=O)N[C@@H](Cc1ccccc1)C(=O)N[C@@H](C)C(=O)N[C@@H](Cc1ccccc1)C(=O)N[C@H](CO)C(=O)O [compound 115] (H-QFAFAFAF[dS]-OH; N-terminus assumed) | true (1) |
| CC(C)C[C@H](NC(=O)[C@@H](N)Cc1ccc(O)cc1)C(=O)N1CCC[C@H]1C(=O)N[C@@H](Cc1ccc(O)cc1)C(=O)N1CCC[C@H]1C(=O)N[C@@H](Cc1ccc(O)cc1)C(=O)N1CCC[C@@H]1C(=O)N[C@@H](Cc1ccccc1)C(=O)N[C@H](Cc1ccccc1)C(=O)O [compound 147] (H-YLPYPY[dP]F[dF]-OH; N-terminus assumed) | true (1) |
| CC(C)C[C@H](N)C(=O)N[C@H](Cc1c[nH]c2ccccc12)C(=O)NCC(=O)NCC(=O)N1CCC[C@H]1C(=O)N[C@@H](Cc1ccc(O)cc1)C(=O)N[C@@H](C)C(=O)N[C@H](CC(=O)O)C(=O)N[C@@H](CO)C(=O)O [compound 131] (H-L[dW]GGPYA[dD]S-OH; N-terminus assumed) | false (0) |
| CC(C)C[C@H](NC(=O)[C@H](N)Cc1ccc(O)cc1)C(=O)N1CCC[C@H]1C(=O)N[C@H](CO)C(=O)N[C@@H](CCC(N)=O)C(=O)N[C@@H](Cc1ccc(O)cc1)C(=O)N[C@@H](C)C(=O)N[C@@H](Cc1ccccc1)C(=O)N[C@H](CO)C(=O)O [yLPsQYAFs] (H-[dY]LP[dS]QYAF[dS]-OH; N-terminus assumed) | false (0) |
| C[C@H](NC(=O)[C@H](Cc1ccc(O)cc1)NC(=O)[C@H](CCC(N)=O)NC(=O)CNC(=O)[C@H](Cc1ccccc1)NC(=O)[C@H](Cc1ccc(O)cc1)NC(=O)[C@H](N)CS)C(=O)N[C@@H](Cc1ccccc1)C(=O)N[C@H](CO)C(=O)O [compound 113] (H-[dC]YFGQYAF[dS]-OH; N-terminus assumed) | true (1) |
